# systemName: Nuclear hormone receptor DAF-12 (Heterodera glycines)
# protocol: hgDAF-12 reporter activation EC50 – cell-based, luminescence, HEK293, dose response (AID 743059);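 also: agonist potency for compounds that raise hgDAF-12 reporter luminescence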
# conditionDescription: HEK293 hgDAF-12 reporter, luciferase luminescence
The source made the active and inactive calls.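 The calls were made as follows: active = EC50 at or below 10 µM; inactive = EC50 above 10 µM.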
Outcomes: t (active), f (inactive)

{"columns": ["compound", "classLabel"],
 "data": [
  ["CCCCSc1ncnc2c1ncn2C1CCCCO1 (centres undefined)", "f"],
  ["O=C(NCCCn1ccnc1)c1cc(-c2cccs2)on1", "t"],
  ["CSc1ccc(/C=N/Nc2ccc(Cl)c(C(=O)O)c2)cc1", "f"],
  ["Cc1cc(OCc2cc(C(=O)NCc3cc(C(C)C)no3)no2)cc(C)c1Cl", "f"]
]}
